target: UniProt:Q12809; assay: Inhibition of human ERG expressed in HEK293 cells assessed as decrease in channel current at 3 uM after 3 mins at -80 mV holding potential by automated patch-clamp electrophysiology assay; assay type: cell-based; settings: HEK293 cells that express hERG
Sequence (Q12809 whole entry): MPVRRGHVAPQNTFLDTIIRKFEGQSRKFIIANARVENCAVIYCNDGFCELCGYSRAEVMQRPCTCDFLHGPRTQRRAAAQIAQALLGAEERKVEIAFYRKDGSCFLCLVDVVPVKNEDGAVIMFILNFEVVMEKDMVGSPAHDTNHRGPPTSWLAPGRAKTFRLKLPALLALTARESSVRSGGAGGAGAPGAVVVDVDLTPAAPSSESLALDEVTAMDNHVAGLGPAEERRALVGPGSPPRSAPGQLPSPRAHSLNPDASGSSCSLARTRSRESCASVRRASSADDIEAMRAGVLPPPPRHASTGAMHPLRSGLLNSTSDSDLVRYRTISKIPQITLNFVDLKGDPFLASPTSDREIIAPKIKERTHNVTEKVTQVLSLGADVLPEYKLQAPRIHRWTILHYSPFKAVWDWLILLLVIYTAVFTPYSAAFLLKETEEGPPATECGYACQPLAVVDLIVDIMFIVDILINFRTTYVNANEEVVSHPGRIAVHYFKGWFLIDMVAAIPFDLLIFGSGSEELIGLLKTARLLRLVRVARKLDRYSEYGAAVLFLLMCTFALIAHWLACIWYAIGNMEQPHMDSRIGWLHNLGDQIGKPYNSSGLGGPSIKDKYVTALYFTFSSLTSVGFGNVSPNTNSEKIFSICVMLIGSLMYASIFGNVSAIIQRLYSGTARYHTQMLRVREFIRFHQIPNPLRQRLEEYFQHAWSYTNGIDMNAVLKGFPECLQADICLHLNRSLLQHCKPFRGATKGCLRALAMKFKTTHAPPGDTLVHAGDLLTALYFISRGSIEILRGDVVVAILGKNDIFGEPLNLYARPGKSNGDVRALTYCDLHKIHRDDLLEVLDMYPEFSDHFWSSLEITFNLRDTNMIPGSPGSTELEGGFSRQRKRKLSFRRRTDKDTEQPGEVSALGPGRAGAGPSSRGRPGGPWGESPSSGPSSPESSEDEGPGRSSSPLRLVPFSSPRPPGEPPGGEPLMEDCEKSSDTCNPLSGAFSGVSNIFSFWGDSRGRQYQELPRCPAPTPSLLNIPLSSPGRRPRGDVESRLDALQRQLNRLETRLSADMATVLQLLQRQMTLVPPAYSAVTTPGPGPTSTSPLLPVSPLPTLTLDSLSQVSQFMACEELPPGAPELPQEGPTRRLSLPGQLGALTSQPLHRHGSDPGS
QUANTITY: inhibition at 0.05 h, 3 µM (%)
Answer with a number only, understood to be in %.

CCC(=O)O[C@@H]1[C@@H]2[C@@H](OC(C)=O)[C@@]34CO[C@@](C)([C@H](OC(C)=O)[C@@]2(OC(C)=O)C[C@H]1C)[C@@H]3[C@@H]1[C@@H](C[C@]1(C)OC(C)=O)[C@@H](OC(=O)C(C)C)C4=O    0
CC(=O)O[C@@H]1[C@H]2[C@@H](OC(=O)c3ccccc3)[C@@H](C)C[C@]2(OC(C)=O)[C@@H](OC(C)=O)[C@]2(C)OC[C@]13C(=O)C=C[C@H](C(C)(C)OC(C)=O)[C@@H]23    9
CCC(=O)O[C@@H]1[C@@H]2[C@@H](OC(C)=O)[C@@]34CO[C@@](C)([C@H](OC(C)=O)[C@@]2(OC(C)=O)C[C@]1(C)OC(=O)c1cccnc1)[C@@H]3[C@@H]1[C@@H](C[C@]1(C)OC(C)=O)[C@@H](OC(=O)C(C)C)C4=O    11

Kindly review the next compound as well.
// map CCC(=O)O[C@@H]1[C@@H]2[C@@H](OC(C)=O)[C@@]34CO[C@@](C)([C@H](OC(C)=O)[C@@]2(OC(C)=O)C[C@]1(C)O)[C@@H]3[C@@H]1[C@@H](C[C@]1(C)OC(C)=O)[C@@H](OC(=O)C(C)CC)C4=O (some centres undefined) to recorded inhibition at 0.05 h, 3 µM (system: UniProt:Q12809)
8
